The reported measurements were obtained from PubChem BioAssay (NCI).

Tested on: SK-MEL-5 melanoma
Experiment: NCI tumour cell line growth inhibition, 48 h
measuredEndpoint: TGI

TGI for CCOC(=O)C1N(S(=O)(=O)c2ccc(C)cc2)CCC12C(c1ccc(OC)c(OC)c1)=Nc1ccccc12 (configuration not stated) is > 100 µM

TGI for COc1ccc(O)cc1C=O is > 100 µM

TGI for Cc1ccc(S(=O)(=O)N2CCCN(S(=O)(=O)c3ccc(C)cc3)CC2)cc1 is > 100 µM

TGI for COC(=O)[C@H](Cc1c[nH]c2ccccc12)NC(=O)OCC1OC(n2cc(C)c(=O)[nH]c2=O)CC1N=[N+]=[N-] (some centres not stated) is > 100 µM

TGI for C/C1=C/C2OC(=O)C3(C)C2C(CC2(C)OC1=CC2=O)OC3(O)C(C)C (configuration not stated) is 55 µM

TGI for O=S(=O)(Cc1nc2ccccc2s1)c1nc2ccccc2s1 is 25.6 µM

TGI for CCN1C(Cl)=NS(=O)(=O)c2ccccc21 is 33.1 µM
